conditions: human, microsomes, 2.5 µM
Attribute measured: CLH (mL/h/kg)
Write it as a number; the unit mL/h/kg goes unstated.

Molecule	Attribute measured	Unit descriptor	Result number
NS(=O)(=O)c1ccccc1-c1ccc2ncnc(NCc3ccc(Cl)nc3)c2c1	CLH	mL/h/kg	0.024
COc1cc(CCn2cnc3ccc(-c4ccccc4S(=O)(=O)N(C)C)cc3c2=O)cc(OC)c1	CLH	mL/h/kg	17.6
COc1ccc(OC)c(CCN2CCc3ccc(-c4ccccc4S(N)(=O)=O)cc3C2)c1	CLH	mL/h/kg	1.38
COc1cc(CCn2cnc3ccc(-c4noc(C)n4)cc3c2=O)cc(OC)c1	CLH	mL/h/kg	1.32
COc1ccc(OC)c(C(C)n2cnc3ccc(-c4ccccc4S(N)(=O)=O)cc3c2=O)c1 (stereo unspecified)	CLH	mL/h/kg	2.88

Report measured CLH; entry is CNc1ccc(-c2ccccc2S(N)(=O)=O)cc1C(=O)NCCc1cc(OC)ccc1OC 11.5
